Entry source: paper PMC10901556

tgt: T1, MDM2_(D.rerio) SWIB domain (Danio rerio (zebrafish))
T1 chain: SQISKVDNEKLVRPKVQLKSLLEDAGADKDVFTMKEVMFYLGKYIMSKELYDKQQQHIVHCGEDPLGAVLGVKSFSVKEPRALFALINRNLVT
testProtocol: fluorescence polarisation; displacement: complex of MDM2 (0.2-2 μM) and FITC-p53TAD_(human)^15–26 (15 nM) displaced by increasing unlabeled p53TAD peptide or p53TAD^full-length; KD calculated from IC50 (Nikolovska-Coleska et al. 2004); 20 mM sodium phosphate pH 7.4, 150 mM NaCl, 1 mM TCEP
recordedConditions: both partners purified
Where no end group is shown, it is not given here.
propertyMeasured: Kd (µM)

[[record]]
binder = "Ac-SQEFAELWEKNL (numbers count on: human p53TAD; also called p53TAD^15–27_(D.rerio); source: bought: GeneCust (France), peptide) [Danio rerio (zebrafish) p53TADP2 p53TAD^15–27]"
unitofmeasure = "µM"
assayvalue = 3.6

